# Tested on: AGTACT
# assay.name: DNase I footprint titration, AGTACT site
# Assay type: binding
# measurement.setup: equilibrium association constant Ka; pH 7.0, 22° C.

compound.smiles: CN(C)CCCNC(=O)c1cc(NC(=O)c2cc(NC(=O)c3cc(NC(=O)c4nsc(NCCN)c4Cl)cn3C)cn2C)cn1C
study.system: AGTACT
readout.units: M⁻¹
Binding Constant, sequence AGTACT: 5e+09
//
compound.smiles: CN(C)CCCNC(=O)CCNC(=O)c1cc(NC(=O)c2cc(NC(=O)c3cc(NC(=O)c4nc(NC(=O)CCCNC(=O)c5cc(NC(=O)c6cc(NC(=O)c7cc(NC(=O)c8nsc(Cl)c8Cl)cn7C)cn6C)cn5C)cn4C)cn3C)cn2C)cn1C
study.system: AGTACT
readout.units: M⁻¹
Binding Constant, sequence AGTACT: 2e+10
//
compound.smiles: CN(C)CCCNC(=O)CCNC(=O)c1cc(NC(=O)c2cc(NC(=O)c3cc(NC(=O)c4cc(NC(=O)c5nsc(Cl)c5Cl)cn4C)cn3C)cn2C)cn1C
study.system: AGTACT
readout.units: M⁻¹
Binding Constant, sequence AGTACT: 2e+08
//
compound.smiles: CN(C)CCCNC(=O)CCNC(=O)c1cc(NC(=O)c2cc(NC(=O)c3cc(NC(=O)c4nc(NC(=O)CCCNC(=O)c5cc(NC(=O)c6cc(NC(=O)c7cc(NC(=O)c8nsc(NCCCN(C)C)c8Cl)cn7C)cn6C)cn5C)cn4C)cn3C)cn2C)cn1C
study.system: AGTACT
readout.units: M⁻¹
Binding Constant, sequence AGTACT: 1e+11
//
compound.smiles: CN(C)CCCNC(=O)c1cc(NC(=O)c2cc(NC(=O)c3cc(NC(=O)c4nsc(NCCCCN)c4Cl)cn3C)cn2C)cn1C
study.system: AGTACT
readout.units: M⁻¹
Binding Constant, sequence AGTACT: 3e+09

###

Property: Binding Constant, sequence ATTACT; scope: individual compounds
# System: ATTACT
# assay.name: DNase I footprint titration, ATTACT site
# Assay type: binding
# measurement.setup: equilibrium association constant Ka; pH 7.0, 22° C.
measured.attribute: Binding Constant, sequence ATTACT (M⁻¹)

compound.smiles: CN(C)CCCNC(=O)CCNC(=O)c1cc(NC(=O)c2cc(NC(=O)c3cc(NC(=O)c4nc(NC(=O)CCCNC(=O)c5cc(NC(=O)c6cc(NC(=O)c7cc(NC(=O)c8nsc(Cl)c8Cl)cn7C)cn6C)cn5C)cn4C)cn3C)cn2C)cn1C
study.system: ATTACT
measured.attribute: Binding Constant, sequence ATTACT
readout.value: 2e+09
//
compound.smiles: CN(C)CCCNC(=O)CCNC(=O)c1cc(NC(=O)c2cc(NC(=O)c3cc(NC(=O)c4nc(NC(=O)CCCNC(=O)c5cc(NC(=O)c6cc(NC(=O)c7cc(NC(=O)c8nsc(NCCCN(C)C)c8Cl)cn7C)cn6C)cn5C)cn4C)cn3C)cn2C)cn1C
study.system: ATTACT
measured.attribute: Binding Constant, sequence ATTACT
readout.value: 7e+09
//
compound.smiles: CN(C)CCCNC(=O)c1cc(NC(=O)c2cc(NC(=O)c3cc(NC(=O)c4nsc(NCCN)c4Cl)cn3C)cn2C)cn1C
study.system: ATTACT
measured.attribute: Binding Constant, sequence ATTACT
readout.value: 2e+08
//
compound.smiles: CN(C)CCCNC(=O)CCNC(=O)c1cc(NC(=O)c2cc(NC(=O)c3cc(NC(=O)c4nc(NC(=O)CCCNC(=O)c5cc(NC(=O)c6cc(NC(=O)c7nsc(Cl)c7Cl)cn6C)cn5C)cn4C)cn3C)cn2C)cn1C
study.system: ATTACT
measured.attribute: Binding Constant, sequence ATTACT
readout.value: 1e+10
//
compound.smiles: CN(C)CCCNC(=O)c1cc(NC(=O)c2cc(NC(=O)c3cc(NC(=O)c4nsc(NCCCCN)c4Cl)cn3C)cn2C)cn1C
study.system: ATTACT
measured.attribute: Binding Constant, sequence ATTACT
readout.value: 1e+08
